attribute.measured: melting point (°C)
API: value field is a number in °C; no unit string.

IN: Given the compound `O=C(NCCc1ccc(C(F)(F)F)cc1F)c1ncccc1C(F)(F)F` , what is its reported melting point?
OUT: 95

IN: Given the compound `O=C(NCCc1ccc(Cl)cc1F)c1ncccc1C(F)(F)F` , what is its reported melting point?
OUT: 69

IN: Given the compound `O=C(NCCc1ccc(F)cc1F)c1ncccc1C(F)(F)F` , what is its reported melting point?
OUT: 78
